The values you see were collected from PubChem BioAssay (NCI).

For each record, write down the corresponding TGI.
Tested on: SF-295 CNS
test-protocol: NCI tumour cell line growth inhibition, 48 h

// query Given O=C1c2ccccc2-c2cccc3ccc(Cc4ccccc4)c1c23 , state its recorded TGI.
// result > 100 µM

// query Given COc1ccc(/C=N/Nc2nc3ccccc3c(=O)n2-c2ccccc2)c(OCc2ccccc2)c1 , state its recorded TGI.
// result > 100 µM

// query Given CCN(CCO)CCNc1ccc(C)c2sc3cc(Cl)ccc3c(=O)c12 , state its recorded TGI.
// result 3.19 µM

// query Given NS(=O)(=O)c1ccc(NC(=O)c2cccc3c(=O)c4ccccc4[nH]c23)cc1 , state its recorded TGI.
// result > 100 µM

---

For each record, write down the corresponding GI50.
System: A549 NSCLC
test-protocol: NCI tumour cell line growth inhibition, 48 h

// query Given CCn1c(-c2nonc2N)nc2ccc(F)cc21 , state its recorded GI50.
// result > 25 µM

// query Given CC(=O)[CH-]C(C)=O.CC(=O)[CH-]C(C)=O.N=CC=N.[Sn+2] , state its recorded GI50.
// result 9.6 µM

// query Given COC(=O)C(Cc1ccccc1)N/C=C\C(=O)c1ccc(Cl)cc1 (stereo not drawn) , state its recorded GI50.
// result 50.1 µM

---

For each record, write down the corresponding TGI.
Tested on: HCC-2998 colon
test-protocol: NCI tumour cell line growth inhibition, 48 h
Report the value in µM with no unit label.

// query Given COc1ccc(-c2cc(-c3cc(Cl)ccc3Cl)nc3nc(=S)[nH]c(N)c23)cc1 , state its recorded TGI.
// result 40.1

// query Given CCN(CCO)CCNc1ccc(C)c2sc3cc(Cl)ccc3c(=O)c12 , state its recorded TGI.
// result 3.14

---

For each record, write down the corresponding TGI.
System: MCF7 breast
test-protocol: NCI tumour cell line growth inhibition, 48 h

// query Request body: readout TGI, system MCF7 breast, query Cc1cn(C2CC(OC(c3ccccc3)(c3ccccc3)c3ccccc3)C(COC(c3ccccc3)(c3ccccc3)c3ccccc3)O2)c(=O)[nH]c1=O (stereo not drawn) . Return the value.
// result > 100 µM

// query Request body: readout TGI, system MCF7 breast, query COC(=O)c1sc2ncc3c(c2c1N)CC(C)CC3 (stereo not drawn) . Return the value.
// result > 100 µM

// query Request body: readout TGI, system MCF7 breast, query COc1ccc(N2C(=O)C3c4[nH]c5ccccc5c4C4C(C)CCCC4C3C2=O)cc1 (stereo not drawn) . Return the value.
// result > 100 µM

// query Request body: readout TGI, system MCF7 breast, query COc1cc(-c2cn(C)c(=O)c(C)c2C)cc(OC)c1CN1CC[C@H](N2CCN(c3ccc(N[C@H]4CCC(=O)NC4=O)cc3F)CC2)C(F)(F)C1 . Return the value.
// result 29.6 µM

// query Request body: readout TGI, system MCF7 breast, query O=[N+]([O-])c1ccc2nc3c(nc2c1)-c1c2ccccc2cc2cccc-3c12 . Return the value.
// result > 100 µM

// query Request body: readout TGI, system MCF7 breast, query Cc1ccc2c(c1)C(=O)/C(=C\c1ccc(Cl)cc1)CCS2(=O)=O . Return the value.
// result 14 µM

// query Request body: readout TGI, system MCF7 breast, query CC1=NC(C)(C)N(O)C1(C)C . Return the value.
// result > 100 µM

// query Request body: readout TGI, system MCF7 breast, query COc1cc(/C=C/C(=O)O)ccc1OS(=O)(=O)O . Return the value.
// result > 100 µM

// query Request body: readout TGI, system MCF7 breast, query COc1cc(OC)c(C2c3cc4c(cc3OC(N3CCOCC3)C2C)OCO4)c(OC)c1 (stereo not drawn) . Return the value.
// result > 100 µM

// query Request body: readout TGI, system MCF7 breast, query Cc1sc(C)c(-c2ccc(CO)o2)c1-c1ccc(CO)o1 . Return the value.
// result > 100 µM

// query Request body: readout TGI, system MCF7 breast, query CC(=O)n1c(-c2ccc(Cl)cc2)nc2c(c1=O)C(c1ccc(Cl)cc1)c1sc3c(Cl)cccc3c1O2 (stereo not drawn) . Return the value.
// result 1.47 µM

// query Request body: readout TGI, system MCF7 breast, query COc1cc2c3c(n(C)c(=O)c2cc1OC)-c1cc2c(cc1/C3=C/CCCCBr)OCO2 . Return the value.
// result > 100 µM

// query Request body: readout TGI, system MCF7 breast, query C=C(C)[C@@H]1CC[C@@]2(C(=O)O)CC[C@]3(C)C(CCC4[C@@]5(C)CCC(OS(=O)(=O)c6ccccc6)C(C)(C)C5CC[C@]43C)C12 (stereo partly drawn) . Return the value.
// result 19.6 µM

// query Request body: readout TGI, system MCF7 breast, query COC(=O)c1cc(C(=O)OC)cc(-c2ccc3c(c2)-c2nc4c(c(-c5ccc(OC)cc5)c2CC3)CCc2ccc(-c3cc(C(=O)OC)cc(C(=O)OC)c3)cc2-4)c1 . Return the value.
// result > 100 µM

// query Request body: readout TGI, system MCF7 breast, query CC12CCC(C/C1=N\NC(N)=O)C2(C)C (stereo not drawn) . Return the value.
// result > 100 µM

// query Request body: readout TGI, system MCF7 breast, query O=C(N/N=C/c1ccc(Cl)cc1Cl)c1ccccc1Nc1cccc(C(F)(F)F)c1 . Return the value.
// result > 100 µM

// query Request body: readout TGI, system MCF7 breast, query O=S1(=O)c2ccccc2NC(=S)N1c1ccccc1 . Return the value.
// result > 100 µM

// query Request body: readout TGI, system MCF7 breast, query COc1ccc2c(c1)[C@@]13CCN4CC5=CCO[C@H]6CC(=O)N2[C@H]1[C@H]6[C@H]5C[C@H]43 . Return the value.
// result > 100 µM

---

System: NCI-H522 lung
test-protocol: NCI tumour cell line growth inhibition, 48 h
measurement-type: GI50

// query Given CC(=O)[CH-]C(C)=O.CC(=O)[CH-]C(C)=O.N=CC=N.[Sn+2] , state its recorded GI50.
// result 0.911 µM

// query Given COCC(=O)OC1CCn2c1nc1c2C(=O)C(C)=C(NC(C)=O)C1=O (configuration not stated) , state its recorded GI50.
// result 5.52 µM

// query Given CS(=O)(=O)Nc1ccc(-c2ccc3c(NC(=O)C4CC4)n[nH]c3c2)cc1 , state its recorded GI50.
// result > 25 µM

// query Given C=C1C(=O)O[C@H]2[C@H]1CC/C(COC(=O)c1cc3cc(OC)ccc3[nH]1)=C\CC[C@@]1(C)O[C@@H]21 , state its recorded GI50.
// result 0.701 µM

// query Given FC(F)(F)c1ccc2c(Nc3cccc(C4CC(c5ccccc5)=NN4c4ccc(Cl)cc4)c3)ccnc2c1 (configuration not stated) , state its recorded GI50.
// result 6.16 µM

// query Given Cc1sc(C)c(-c2ccc(CO)o2)c1-c1ccc(CO)o1 , state its recorded GI50.
// result 41.9 µM

// query Given CCCSc1cc(Cl)nc(N)n1 , state its recorded GI50.
// result > 100 µM

---

For each record, write down the corresponding TGI.
System: IGROV1 ovarian
test-protocol: NCI tumour cell line growth inhibition, 48 h

// query Given COn1cc(CO)c2ccccc21 , state its recorded TGI.
// result > 100 µM

// query Given Clc1cccc(C2ON=C(c3ccccc3)N2C23CC4CC(CC(C4)C2)C3)c1Cl (stereo not drawn) , state its recorded TGI.
// result > 10 µM

// query Given C[C@H]1CCC/C=C/[C@@H]2C[C@H](N)C[C@H]2[C@H](O)/C=C/C(=O)O1 , state its recorded TGI.
// result > 100 µM

---

System: EKVX NSCLC
test-protocol: NCI tumour cell line growth inhibition, 48 h
measurement-type: TGI

// query Request body: readout TGI, system EKVX NSCLC, query COc1ccc(CCCCl)c(C2=NCCc3ccccc32)c1 . Return the value.
// result > 100 µM

// query Request body: readout TGI, system EKVX NSCLC, query CCn1c(-c2nonc2N)nc2ccc(F)cc21 . Return the value.
// result > 25 µM

// query Request body: readout TGI, system EKVX NSCLC, query CCOC(=O)C(C)NC(=O)N(C)C12CC3CC(CC(C3)C1)C2 (stereo not given) . Return the value.
// result > 500 µM

// query Request body: readout TGI, system EKVX NSCLC, query O=C(Nc1ccc(S(=O)(=O)N[C@@H](C(=O)O)c2ccccc2)cc1)c1ccc(F)cc1 . Return the value.
// result > 100 µM

// query Request body: readout TGI, system EKVX NSCLC, query NS(=O)(=O)c1nnc(NSc2ccc([N+](=O)[O-])cc2)s1 . Return the value.
// result > 100 µM

---

For each record, write down the corresponding TGI.
Test system: MDA-N
test-protocol: NCI tumour cell line growth inhibition, 48 h

// query Given O=C(O)c1cc2ccccc2c(S(=O)(=O)O)c1O , state its recorded TGI.
// result > 100 µM

// query Given Clc1cccc(C2ON=C(c3ccccc3)N2C23CC4CC(CC(C4)C2)C3)c1Cl (stereo not drawn) , state its recorded TGI.
// result > 10 µM

// query Given CCOC(=O)c1csc(NC(=O)CCCC#N)n1 , state its recorded TGI.
// result > 100 µM
